Measured Iodine color number, 60 d 40° C. accompanies every entry in the list below.
assay text: Iodine color number according to DIN 6162:2014-09
Format: physicochemical
conditions: Polymer P2 with stabilizer; 60 d 40° C.
When you answer, write just the number.

Answered examples (2):
In [3]: df
Out[3]:
                                   compound  data_value
0  CCCCCCCCCC[N+](C)(C)CCCCCCCCCC.[Cl-] [DDAC, didecyldimethylammonium chloride]         3.0
1  CCCCNC(=O)OCC#CI [Iodopropynyl butyl carbamate, iodopropynyl butyl carbamate]         8.0

Moving on to the next compound.
Recorded result, "CCCCCCCCn1sc(Cl)c(Cl)c1=O" , Iodine color number, 60 d 40° C.: 8.1

---

assay text: Analysis of active substance: preservative concentration before and after storage in VI-containing polymer solution
Format: physicochemical
conditions: in Polymer P9; storage 28 d at 40° C.
Measured active-substance concentration, 28 d, 40° C. accompanies every entry in the list below.
The reply should contain only the number, in ppm.

Answered examples (4):
                                   compound  unit_abbrev  data_value
0  CCCCCCCCCC[N+](C)(C)CCCCCCCCCC.[Cl-] [DDAC, didecyldimethylammonium chloride]          ppm         944
1                         CCCCCCCCn1sccc1=O          ppm          76
2  CCCCNC(=O)OCC#CI [Iodopropynyl butyl carbamate, iodopropynyl butyl carbamate]          ppm         160
3                        O=c1[nH]sc2ccccc12          ppm          78

Recorded result, "CCCCCCCCn1sc(Cl)c(Cl)c1=O" , active-substance concentration, 28 d, 40° C.: 165

Recorded result, "Cn1sccc1=O" , active-substance concentration, 28 d, 40° C.: 98

Recorded result, CCCCCCCCCCCCCCCC[N+](C)(C)Cc1ccccc1.[Cl-] [Polymer 16-BAC, cetylalkonium chloride] , active-substance concentration, 28 d, 40° C.: 960

Recorded result, "Cn1sc(Cl)cc1=O" , active-substance concentration, 28 d, 40° C.: 70

---

assay text: Iodine color number according to DIN 6162:2014-09
Type: physicochemical
conditions: Polymer P5 (HP56) with stabilizer; 60 d 40° C.
hey, just use True if measured Iodine color number, 60 d 40° C. is less than 9, otherwise False

Take a look at these entries with their results.
In [3]: df
Out[3]:
                                   compound  assigned_category
0  CCCCCCCCCCCCCCCC[N+](C)(C)Cc1ccccc1.[Cl-] [Polymer 16-BAC, cetylalkonium chloride]               True
1  CCCCCCCCn1sc(Cl)c(Cl)c1=O [DCOIT, dichloroctylisothiazolinone]               True
2  CCCCNC(=O)OCC#CI [Iodopropynyl butyl carbamate, iodopropynyl butyl carbamate]              False

Read the next record carefully.
Input CCCCCCCCCC[N+](C)(C)CCCCCCCCCC.[Cl-] [DDAC, didecyldimethylammonium chloride] ; condition: Iodine color number, 60 d 40° C. strictly below 9. Does it hold?
True

---

assay text: Physical stability; visual assessment (color, turbidity, phase separation)
Type: physicochemical
Parameters: key: ++: no discernible change with respect to color, turbidity or phase separation; +: marginal change in color number, somewhat increased Tyndall effect but no turbidity; 0: easily discernible increase in color number and moderate turbidity−no phase separation; −: turbidity and change in color number readily discernible by visual assessment; −−: strong color change with strong turbidity and incipient phase separation
conditions: Polymer P6 with stabilizer
measure name: Physical stability, 60 d 40° C.*

Answered examples (5):
                                   molecule  data_value
0  O=c1[nH]sc2ccccc12 [BIT, 1,2-benzisothiazolin-3-one]           −
1  CCCCCCCCn1sccc1=O [OIT, octylisothiazolinone]          −−
2  CCCCCCCCCCCCCCCC[N+](C)(C)Cc1ccccc1.[Cl-] [Polymer 16-BAC, cetylalkonium chloride]           +
3  Cn1sc(Cl)cc1=O [CMIT, 5-chloro-N-methylisothiazolin-3-one]          −−
4  CCCCNC(=O)OCC#CI [Iodopropynyl butyl carbamate, iodopropynyl butyl carbamate]           −

Recorded result, CCCCCCCCCCCCCCCC[n+]1ccccc1 [CPC, cetylpyridinium chloride] , Physical stability, 60 d 40° C.*: +

Recorded result, CCCCCCCCCC[N+](C)(C)CCCCCCCCCC.[Cl-] [DDAC, didecyldimethylammonium chloride] , Physical stability, 60 d 40° C.*: ++

Recorded result, CCCCCCCCn1sc(Cl)c(Cl)c1=O [DCOIT, dichloroctylisothiazolinone] , Physical stability, 60 d 40° C.*: −−

Recorded result, Cn1sccc1=O [MIT, methyl-4-isothiazolin-3-one] , Physical stability, 60 d 40° C.*: −

Reference for the values: patent US12281225B2
